Molecular target: VLA-4 (Homo sapiens, UniProt P05556+P13612)
Construct: endogenous in cells
Sequence (P13612 34-1032): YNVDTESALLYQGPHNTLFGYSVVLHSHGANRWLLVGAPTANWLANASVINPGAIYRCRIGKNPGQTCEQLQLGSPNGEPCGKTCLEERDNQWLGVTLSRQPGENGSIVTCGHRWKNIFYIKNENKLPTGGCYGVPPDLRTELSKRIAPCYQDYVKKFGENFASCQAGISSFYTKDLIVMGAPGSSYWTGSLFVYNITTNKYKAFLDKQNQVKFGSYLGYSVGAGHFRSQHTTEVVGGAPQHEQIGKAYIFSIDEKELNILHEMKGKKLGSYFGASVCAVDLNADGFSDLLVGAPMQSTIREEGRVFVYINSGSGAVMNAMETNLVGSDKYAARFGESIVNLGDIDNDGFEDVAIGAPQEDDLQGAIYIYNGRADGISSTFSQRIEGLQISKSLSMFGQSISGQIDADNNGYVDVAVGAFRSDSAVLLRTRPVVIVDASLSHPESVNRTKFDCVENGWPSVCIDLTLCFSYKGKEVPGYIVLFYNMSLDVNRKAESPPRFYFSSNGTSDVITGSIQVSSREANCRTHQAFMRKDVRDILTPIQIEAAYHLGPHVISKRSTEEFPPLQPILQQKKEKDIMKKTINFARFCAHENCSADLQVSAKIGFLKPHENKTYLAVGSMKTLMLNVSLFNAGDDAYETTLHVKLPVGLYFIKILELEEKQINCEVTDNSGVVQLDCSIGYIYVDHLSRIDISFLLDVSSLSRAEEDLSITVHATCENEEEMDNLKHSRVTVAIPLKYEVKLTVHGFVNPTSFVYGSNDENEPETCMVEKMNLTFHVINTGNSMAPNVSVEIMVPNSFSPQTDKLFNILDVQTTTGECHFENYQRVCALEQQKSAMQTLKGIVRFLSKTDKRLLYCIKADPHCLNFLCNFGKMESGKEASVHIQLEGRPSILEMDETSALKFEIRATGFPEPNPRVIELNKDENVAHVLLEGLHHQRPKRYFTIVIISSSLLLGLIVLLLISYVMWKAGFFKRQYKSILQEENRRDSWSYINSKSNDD
Sequence (P05556 21-798): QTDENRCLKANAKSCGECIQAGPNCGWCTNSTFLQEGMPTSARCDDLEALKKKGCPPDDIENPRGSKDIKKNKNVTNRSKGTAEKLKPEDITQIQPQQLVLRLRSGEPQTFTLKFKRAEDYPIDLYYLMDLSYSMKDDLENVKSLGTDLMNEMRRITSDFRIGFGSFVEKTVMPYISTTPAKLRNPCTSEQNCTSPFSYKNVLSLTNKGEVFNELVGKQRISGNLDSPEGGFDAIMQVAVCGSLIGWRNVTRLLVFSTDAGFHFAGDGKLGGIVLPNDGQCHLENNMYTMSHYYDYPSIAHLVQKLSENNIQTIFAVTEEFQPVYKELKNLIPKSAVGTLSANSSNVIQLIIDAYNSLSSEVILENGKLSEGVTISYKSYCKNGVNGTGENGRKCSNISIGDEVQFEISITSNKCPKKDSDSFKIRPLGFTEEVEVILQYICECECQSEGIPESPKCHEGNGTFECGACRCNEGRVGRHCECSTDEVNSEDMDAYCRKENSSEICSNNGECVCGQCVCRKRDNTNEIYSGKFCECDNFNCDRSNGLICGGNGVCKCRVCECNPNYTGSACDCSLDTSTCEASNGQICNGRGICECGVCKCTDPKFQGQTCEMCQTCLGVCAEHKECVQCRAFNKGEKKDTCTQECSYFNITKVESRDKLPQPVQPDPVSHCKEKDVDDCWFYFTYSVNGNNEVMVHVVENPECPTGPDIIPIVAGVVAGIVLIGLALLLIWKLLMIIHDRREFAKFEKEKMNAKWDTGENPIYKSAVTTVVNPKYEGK
Test: VLA-4 direct binding assay (VCAM-IgG alkaline phosphatase conjugate binding to Jurkat cells)
Details: Table 1, Structure-Activity; assay and unit inferred; read-out: Act
Property: pIC50; scope: individual compounds
// pIC50 here means minus log10 of the molar concentration (mol/L)

- COc1ccc([C@H](CC(=O)O)NC(=O)CCC(=O)Nc2ccc(NC(=O)Nc3ccccc3)c(O)c2)cc1OC: 6.67
- Cc1ccccc1NC(=O)Nc1ccc(NC(=O)[C@@H]2CCCN2C(=O)CC(C)CCC(=O)O)cc1 (stereo partly shown): 6.84

What measured pIC50 is associated with COc1ccc([C@H](CC(=O)O)NC(=O)C(CC(=O)Nc2ccc(NC(=O)c3ccccc3)cc2)CC(C)C)cc1OC (stereo partly shown) on VLA-4 (Homo sapiens, UniProt P05556+P13612)? 6.78

What measured pIC50 is associated with Cc1ccccc1NC(=O)Nc1ccc(NC(=O)Nc2cccc(OCCCC(=O)O)c2)cc1 on VLA-4 (Homo sapiens, UniProt P05556+P13612)? 6.16

What measured pIC50 is associated with Cc1ccccc1NC(=O)Nc1ccc(NC(=O)CC(CC(C)C)C(=O)N[C@@H](CC(=O)O)CN2CCOCC2)cc1 (stereo partly shown) on VLA-4 (Homo sapiens, UniProt P05556+P13612)? 5.22

What measured pIC50 is associated with Cc1ccccc1NC(=O)Nc1ccc(CC(=O)Nc2ccc3c(c2)C(=O)N(C(C)CC(=O)O)CC(=O)N3C)cc1 (stereo not shown) on VLA-4 (Homo sapiens, UniProt P05556+P13612)? 7.20

What measured pIC50 is associated with Cc1ccccc1NC(=O)Nc1ccc(CC(=O)Nc2ccc3c(c2)C(=O)N(CCC(=O)O)CC(=O)N3CC2CC2)cc1 on VLA-4 (Homo sapiens, UniProt P05556+P13612)? 6.71

* * *

Property: pIC50; scope: individual compounds
Molecular target: VLA-4 (Homo sapiens, UniProt P05556+P13612)
Construct: endogenous in cells
Assay: VLA-4 direct binding assay (VCAM-IgG alkaline phosphatase conjugate binding to Jurkat cells)
Details: Table 1, Structure-Activity; assay and unit inferred; read-out: Act
// pIC50 here means minus log10 of the molar concentration (mol/L)

Example entries and their recorded answers appear below.
* Cc1ccccc1NC(=O)Nc1ccc(CC(=O)Nc2ccc3c(c2)C(=O)N(CCC(=O)O)CC(=O)N3CCc2ccccc2)cc1 | 6.88
* Cc1ccccc1NC(=O)Nc1ccc(CC(=O)Nc2cccc(CN(CCC(=O)O)C(=O)Cc3ccccc3)c2)cc1 | 5.65
* Cc1ccccc1NC(=O)Nc1ccc(N2CC[C@@H](CC(=O)N[C@H](C)CC(=O)O)C2=O)cc1 | 6.11

Which pIC50 is listed for COc1ccc(C(CC(=O)O)NC(=O)C(CC(=O)Nc2ccc(NC(=O)Nc3ccccc3C)cc2)NS(C)(=O)=O)cc1OC (stereo not shown) ? 6.71

Which pIC50 is listed for Cc1ccccc1NC(=O)Nc1ccc(CC(=O)NCc2ccc3c(c2)C(=O)N(CCC(=O)O)CC(=O)N3C)cc1 ? 5.29

Which pIC50 is listed for COc1ccc([C@H](CC(=O)O)NC(=O)C(CC(=O)Nc2ccc(NC(=O)Nc3ccccc3)cc2)CC(C)C)cc1OC (stereo partly shown) ? 6.51

Which pIC50 is listed for CC(C)CCN(CC(=O)Nc1ccccc1)C(=O)CN(CCC(=O)O)C(=O)c1ccccc1 ? 5.38

* * *

Property: IC50; scope: individual compounds
Biological target: VLA-4 (Homo sapiens, UniProt P05556+P13612)
Construct: endogenous in cells
Experiment: VLA-4 direct binding assay (VCAM-IgG alkaline phosphatase conjugate binding to Jurkat cells)
Conditions: Table 1, Structure-Activity; assay and unit inferred; read-out: Act

Example entries and their recorded answers appear below.
- CCOC(=O)CCN1CC(=O)N(CCC(=O)O)Cc2cc(NC(=O)Cc3ccc(NC(=O)Nc4ccccc4C)cc3)ccc21 [BX72]: 12.5 nM
- COc1cccc(C(=O)N(CCC(=O)O)CC(=O)N(CCC(C)C)CC(=O)Nc2ccc(OCC(=O)Nc3ccccc3)cc2)c1 [AX19]: 6190 nM
- COc1cccc(C(=O)N(CCC(=O)O)CC(=O)N(CCC(C)C)CC(=O)Nc2ccc(C(=O)CC(=O)Nc3ccccc3Cl)cc2)c1 [AX23]: 580 nM

For the next question, use this compound.
Which IC50 is listed for COc1cccc(C(=O)N(CCC(=O)O)CC(=O)N(CCC(C)C)CC(=O)Nc2ccc(-n3cnc(Cl)c3Cl)cc2)c1 [AX4] ? 15200 nM

* * *

Property: pIC50; scope: individual compounds
Target: VLA-4 (Homo sapiens, UniProt P05556+P13612)
Construct: endogenous in cells
Assay: VLA-4 direct binding assay (VCAM-IgG alkaline phosphatase conjugate binding to Jurkat cells)
Settings: Table 1, Structure-Activity; assay and unit inferred; read-out: Act
// pIC50 here means minus log10 of the molar concentration (mol/L)

Example entries and their recorded answers appear below.
* Cc1ccccc1NC(=O)Nc1ccc(CC(=O)Nc2ccc3c(c2)C(=O)N(CCC(=O)O)CC(=O)N3C2CCN(Cc3ccccc3)CC2)cc1 [BX43] | 6.56
* CN1C(=O)CN(CCC(=O)O)C(=O)c2cc(NC(=O)Cc3ccc(NC(=O)Nc4ccccc4Cl)cc3)ccc21 [BX34] | 6.14
* COC(=O)CN1C(=O)CN(CCC(=O)O)C(=O)c2cc(NC(=O)Cc3ccc(NC(=O)Nc4ccccc4C)cc3)ccc21 [BX57] | 6.95
* COc1cc(NC(=O)Cc2ccc(NC(=O)Nc3ccccc3C)cc2)cc(OCCCC(=O)O)c1 [RX26] | 7.11

What measured pIC50 is associated with Cc1ccccc1NC(=O)Nc1ccc(CC(=O)Nc2ccc3c(c2)C(=O)N(CCC(=O)O)CC(=O)N3C2CCCCC2)cc1 [BX40] on VLA-4 (Homo sapiens, UniProt P05556+P13612)? 6.36

What measured pIC50 is associated with Cc1ccccc1NC(=O)Nc1ccc(CC(=O)Nc2cccc(NCCC(=O)O)c2)cc1 [RX15] on VLA-4 (Homo sapiens, UniProt P05556+P13612)? 6.19

What measured pIC50 is associated with Cc1ccccc1NC(=O)Nc1ccc(CC(=O)Nc2cccc(S(=O)(=O)NCCC(=O)O)c2)cc1 [RX5] on VLA-4 (Homo sapiens, UniProt P05556+P13612)? 5.42

* * *

Property: IC50; scope: individual compounds
Biological target: VLA-4 (Homo sapiens, UniProt P05556+P13612)
Construct: endogenous in cells
Assay: VLA-4 direct binding assay (VCAM-IgG alkaline phosphatase conjugate binding to Jurkat cells)
Details: Table 1, Structure-Activity; assay and unit inferred; read-out: Act
All answers are understood in nM, so give the number only.

Example entries and their recorded answers appear below.
- Cc1ccccc1NC(=O)Nc1ccc(CC(=O)Nc2ccc3c(c2)C(=O)N(C(CC(=O)O)C(=O)O)CC(=O)N3CCC(=O)O)cc1 (stereo not shown) [BX62]: 95
- Cc1ccccc1NC(=O)Nc1ccc(CC(=O)Nc2cc(OCCCC(=O)O)ccc2C(C)C)cc1 [RX10]: 2040
- COc1ccc([C@H](CC(=O)O)NC(=O)C(CC(=O)Nc2ccc(CCCc3ccccc3)cc2)CC(C)C)cc1OC (stereo partly shown) [SX14]: 8240

What measured IC50 is associated with Cc1ccccc1NC(=O)Nc1ccc(CC(=O)NCc2cccc(OCCCC(=O)O)c2)cc1 [RX14] on VLA-4 (Homo sapiens, UniProt P05556+P13612)? 652

What measured IC50 is associated with Cc1ccccc1NC(=O)Nc1ccc(NC(=O)CN(CCC(C)C)C(=O)CN(CCC(=O)O)C(=O)C2CCCCC2)cc1 [AX29] on VLA-4 (Homo sapiens, UniProt P05556+P13612)? 890

What measured IC50 is associated with Cc1ccccc1NC(=O)Nc1ccc(CC(=O)Nc2ccc3c(c2)C(=O)N(CCCCC(=O)O)CC(=O)N3C)cc1 [BX15] on VLA-4 (Homo sapiens, UniProt P05556+P13612)? 5130

What measured IC50 is associated with COc1ccc([C@H](CC(=O)O)NC(=O)C(CC(=O)Nc2ccc(CCc3ccccc3C)cc2)CC(C)C)cc1OC (stereo partly shown) [SX39] on VLA-4 (Homo sapiens, UniProt P05556+P13612)? 397

* * *

Molecular target: VLA-4 (Homo sapiens, UniProt P05556+P13612)
Construct: endogenous in cells
Assay: VLA-4 direct binding assay (VCAM-IgG alkaline phosphatase conjugate binding to Jurkat cells)
Conditions: Table 1, Structure-Activity; assay and unit inferred; read-out: Act
endpoint.name: IC50
Please provide the amount together with its unit, number first.

Example entries and their recorded answers appear below.
• Cc1ccccc1NC(=O)Nc1ccc(CC(=O)Nc2cccc(OCCC(=O)O)c2)cc1 = 0.317 µM
• Cc1ccccc1NC(=O)Nc1ccc(CC(=O)Nc2ccc3c(c2)C(=O)N(CCC(=O)O)CC(=O)N3Cc2ccccc2)cc1 = 0.116 µM

Which IC50 is listed for Cc1ccccc1NC(=O)Nc1ccc(CC(=O)Nc2ccc3c(c2)C(=O)N(CCC(=O)O)CC(=O)N3CC2CCCO2)cc1 (stereo not shown) ? 0.12 µM

Which IC50 is listed for Cc1ccccc1NC(=O)Nc1ccc(NC(=O)C[C@@H](CC(C)C)C(=O)NC(CC(=O)O)c2ccc3c(c2)OCO3)cc1 (stereo partly shown) ? 0.055 µM
